Target: matriptase (Homo sapiens, UniProt Q9Y5Y6)
Construct: purchased R&D Systems 3946-SEB
Sequence (Q9Y5Y6 615-855 limits assumed): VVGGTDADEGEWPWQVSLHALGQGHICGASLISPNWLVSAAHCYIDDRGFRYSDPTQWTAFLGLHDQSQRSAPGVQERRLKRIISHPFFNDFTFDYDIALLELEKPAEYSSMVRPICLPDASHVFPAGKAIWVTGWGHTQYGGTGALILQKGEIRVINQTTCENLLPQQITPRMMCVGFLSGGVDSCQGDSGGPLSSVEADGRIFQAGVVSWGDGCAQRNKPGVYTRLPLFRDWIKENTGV
Assay: FRET peptide cleavage efficiency with matriptase
Type: biochemical
Conditions: t = 60 min; standard conditions (Table 8)
Square brackets hold non-standard residues; d marks the D form. Ends that are not written are not given here. Tyr(3-NO2) = N[C@@H](Cc1ccc(O)c([N+](=O)[O-])c1)C(=O)O; 2Abz = Nc1ccccc1C(=O)O
ENDPOINT_LABEL: % cleavage Matriptase t = 60 min (%)

INSERT INTO assay_data (residue_string, result_unit, endpoint_result) VALUES
  ('SGRVQPLVD (not fully specified (N-terminus, C-terminus)) [LNK047]', '%', 17),
  ('SGRVYMLQG ([2Abz]SGRVYMLQG[Tyr(3-NO2)]-NH2) [LNK044]', '%', 0),
  ('RGRKPYMLQG ([2Abz]RGRKPYMLQG[Tyr(3-NO2)]-NH2) [LNK035]', '%', 100);

* * *

Biological target: MMP-2 (Homo sapiens)
Construct: purchased SIGMA PF023
Sequence (P08253 110-660): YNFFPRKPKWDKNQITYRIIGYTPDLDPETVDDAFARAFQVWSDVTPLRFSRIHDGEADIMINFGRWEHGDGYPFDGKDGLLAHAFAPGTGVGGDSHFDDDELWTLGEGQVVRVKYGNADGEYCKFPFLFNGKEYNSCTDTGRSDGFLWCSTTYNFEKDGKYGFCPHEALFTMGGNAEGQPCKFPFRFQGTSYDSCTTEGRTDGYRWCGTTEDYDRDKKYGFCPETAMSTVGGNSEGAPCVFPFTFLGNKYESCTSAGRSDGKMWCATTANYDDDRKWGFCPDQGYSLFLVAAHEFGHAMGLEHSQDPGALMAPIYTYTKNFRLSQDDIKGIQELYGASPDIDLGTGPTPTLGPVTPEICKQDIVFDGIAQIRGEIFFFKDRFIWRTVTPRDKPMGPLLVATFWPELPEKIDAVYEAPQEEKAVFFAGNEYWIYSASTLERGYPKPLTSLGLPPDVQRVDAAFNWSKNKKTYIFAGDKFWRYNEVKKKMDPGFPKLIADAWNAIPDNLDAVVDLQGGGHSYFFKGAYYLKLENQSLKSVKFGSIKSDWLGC
Test: FRET peptide cleavage efficiency with MMP-2
Format: biochemical
Settings: t = 15 min; 200 uM linker, 1 ug/ml protease, 37° C., buffer C pH 7.5
Square brackets hold non-standard residues; d marks the D form. Ends that are not written are not given here. Tyr(3-NO2) = N[C@@H](Cc1ccc(O)c([N+](=O)[O-])c1)C(=O)O; 2Abz = Nc1ccccc1C(=O)O
ENDPOINT_LABEL: % cleavage MMP-2 t = 15 min (%)

INSERT INTO results (residue_string, endpoint_label, result_unit, endpoint_result) VALUES
  ('SGRVAGLVG ([2Abz]SGRVAGLVG[Tyr(3-NO2)]-NH2) [LNK016]', '% cleavage MMP-2 t = 15 min', '%', 85),
  ('SSRAVFRKNLGPLGLAG ([2Abz]SSRAVFRKNLGPLGLAG[Tyr(3-NO2)]-NH2) [LNK002]', '% cleavage MMP-2 t = 15 min', '%', 77),
  ('RGRRVANYFGKL ([2Abz]RGRRVANYFGKL[Tyr(3-NO2)]-NH2) [LNK055]', '% cleavage MMP-2 t = 15 min', '%', 85),
  ('GSSYYSGA ([2Abz]GSSYYSGA[Tyr(3-NO2)]-NH2) [LNK079]', '% cleavage MMP-2 t = 15 min', '%', 10),
  ('SGRVLRKAGPQPLVD ([2Abz]SGRVLRKAGPQPLVD[Tyr(3-NO2)]-NH2) [LNK003]', '% cleavage MMP-2 t = 15 min', '%', 8);
